Each entry below lists one item and its recorded pEC50 value.
# assayTarget: T1, recombinant human TROP2 extracellular domain (aa 1-274) comprising His tag (human, UniProt P09758 27-274)
# T1 construct: Used here for all assays on recombinant human TROP2 (ELISA, immunoblot, SPR, crystal), although only some of them name the catalogue number; also called human recombinant TROP2; recombinant human TROP2 protein; not shown: His tag
# T1 sequence: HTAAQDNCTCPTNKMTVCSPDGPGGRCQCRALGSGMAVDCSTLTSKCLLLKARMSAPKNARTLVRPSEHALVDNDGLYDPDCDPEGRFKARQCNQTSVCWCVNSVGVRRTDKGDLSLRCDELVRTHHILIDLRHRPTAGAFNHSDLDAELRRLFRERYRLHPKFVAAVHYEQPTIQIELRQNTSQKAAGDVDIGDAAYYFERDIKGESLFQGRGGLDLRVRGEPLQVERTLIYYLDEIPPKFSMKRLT
# measurementNotes: ELISA, coated rh TROP2
pEC50: −log10 of the molar value.
readoutType: pEC50

# binder, readoutNumber
rows = [
    ("KD058 (antibody, V domains shown, KD005 humanized variant) VH: QVQLQESGGGLIQPGGSLRLSCAASGFTFSGSDMSWVRQAPGKGLEWVSYITSGGTTYYADTVKGRFTISRDNSKNTLYLQMNSLRAEDTAVYYCAKSRLTDSHYVEDAWGQGTLVTVSS", 10.00),
    ("KD002 (antibody, human IgG1, V domains shown, also called anti-TROP2 sdAb KD002) VH: QVQLQESGGGMVQVGGSLRLSCAASGFPFSSADMSWVRQAPGKGPEWVSYINADGSKTYYPDSVKGRFTISRDNAKNTLYLLMNNLKPEDTALYRCARAKLTDTHYVEDYWGQGTQVTVSS", 10.26),
    ("KD045 (antibody, V domains shown, KD005 humanized variant) VH: EVQLLESGGGLVQPGGSLRLSCAASGFTFSGSDMSWVRQAPGKGLEWVSYITSGGTTYYADTVKGRFTISRDNSKNTLYLQMNSLRAEDTAVYRCAKSRLTDSHYVEDAWGQGTLVTVSS", 10.05),
    ("KD047 (antibody, V domains shown, KD005 humanized variant) VH: QVQLLESGGGLVQPGGSLRLSCAASGFTFSGSDMSWVRQAPGKGPEWVSYITSGGTTYYADTVKGRFTISRDNSKNTLYLQMNSLRAEDTAVYRCAKSRLTDSHYVEDAWGQGTLVTVSS", 9.85),
]
